assay: in vitro; details: CD-1, mouse, plasma, pH 7.4, % Protein Free Mean ± SD
Metric Name: fraction unbound at 2.5 h, 2 µM
The answer should be written as a number, with no unit following it.

Field request: fraction unbound at 2.5 h, 2 µM | item: CC(=O)CC(c1ccccc1)c1c(O)c2ccccc2oc1=O (stereo not shown)
0.04

* * *

assay: Metabolic stability in cryopreserved CD-1 mouse hepatocytes; format: in vitro ADME; conditions: mouse, hepatocytes, CD-1 mouse hepatocytes 0.5 million cells/mL; 2 μM; read-out: CLint (L/hr/kg)
Ends that are not written are not given here.
Metric Name: CLint scaled

Field request: CLint scaled | item: LRKLRKRLLRLVGRQLEEFL [HM-10/10, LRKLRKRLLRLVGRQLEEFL]
> 65.5 L/h/kg
